Origin of the recorded values: ChEMBL document CHEMBL3259553

# PROTOCOL: Volume of distribution at steady state in rat at 5 mg/kg, iv
# Format: ADME, organism-based
# Design: dose 5 mg/kg, route intravenous
# TEST_SETTINGS: in vivo, read-out: Vdss
OUTCOME_MEASURE: Vd

According to the records, this compound CC(C)c1cc(Oc2c(Cl)cc(-n3nc(C#N)c(=O)[nH]c3=O)cc2Cl)n[nH]c1=O [RESMETIROM] displays Vd of 0.422 L/kg

----------
# PROTOCOL: AUC in rat at 5 mg/kg, iv
# Assay type: ADME, organism-based
# Set-up: dose 5 mg/kg, route intravenous
# TEST_SETTINGS: plasma
OUTCOME_MEASURE: AUC (µg·h/mL)
Answer format: numeric, µg·h/mL implied, no suffix.

According to the records, this compound CC(C)c1cc(Oc2c(Cl)cc(-n3nc(C#N)c(=O)[nH]c3=O)cc2Cl)n[nH]c1=O displays AUC of 38.1
